# studySystem: T1, EV71 mature virions (human enterovirus 71 (EV71))
# T1 chain 1: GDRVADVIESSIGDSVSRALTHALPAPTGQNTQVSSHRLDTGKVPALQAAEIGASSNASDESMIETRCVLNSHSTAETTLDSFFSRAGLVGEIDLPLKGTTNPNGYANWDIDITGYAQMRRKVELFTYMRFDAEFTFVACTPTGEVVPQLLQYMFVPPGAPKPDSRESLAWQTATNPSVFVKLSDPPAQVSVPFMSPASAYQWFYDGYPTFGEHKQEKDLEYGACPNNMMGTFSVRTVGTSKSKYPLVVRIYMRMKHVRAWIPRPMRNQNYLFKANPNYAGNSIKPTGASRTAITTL
# T1 chain 2: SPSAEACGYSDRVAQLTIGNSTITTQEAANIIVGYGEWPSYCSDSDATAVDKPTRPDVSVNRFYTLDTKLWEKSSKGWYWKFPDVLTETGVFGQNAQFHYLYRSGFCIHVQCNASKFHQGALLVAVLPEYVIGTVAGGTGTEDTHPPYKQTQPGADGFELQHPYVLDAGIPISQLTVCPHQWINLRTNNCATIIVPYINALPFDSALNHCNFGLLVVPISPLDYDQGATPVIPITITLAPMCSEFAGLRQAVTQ
# T1 chain 3: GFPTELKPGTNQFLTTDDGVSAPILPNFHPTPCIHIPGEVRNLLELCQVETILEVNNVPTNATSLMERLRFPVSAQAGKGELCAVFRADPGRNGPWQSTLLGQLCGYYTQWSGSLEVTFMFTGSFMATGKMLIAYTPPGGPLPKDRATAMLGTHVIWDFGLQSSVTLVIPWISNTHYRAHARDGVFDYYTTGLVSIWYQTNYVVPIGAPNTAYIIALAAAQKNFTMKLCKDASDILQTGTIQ
# T1 chain 4: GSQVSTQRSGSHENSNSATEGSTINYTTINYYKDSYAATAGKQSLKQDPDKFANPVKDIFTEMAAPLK
# assayExplanation: ITC
valueKind: Kd (µM)
Just the number please, in µM, no unit attached.

Exercise: Find the recorded Kd belonging to WSQVHFLREIIEAMLKAYQQK [synthesized peptide of SCARB2 (aa 146-166)] and report it.
Key: 4.2
